All figures here come from the supplement of paper PMC12494721.

- System: Klebsiella aerogenes DSM 30053
- experiment-description: growth (OD595) fold change vs plate DMSO controls (fold change (ratio)); higher = more growth
- assay-conditions: incubation time: 27 h, anaerobic, 37 °C
Counter-ions that a name gives are not always drawn.
// growth lookup, one value per entry
Answer with a number only.

CNC(C)CCC=C(C)C (stereo unspecified) [Isometheptene mucate] (20 µM) = 1.01

Param item = CNCCCC12CCC(c3ccccc31)c1ccccc12 [Maprotiline hydrochloride] (20 µM) ; retrieve measured growth.
0.999

Also, CCC(C)n1ncn(-c2ccc(N3CCN(c4ccc(OCC5COC(Cn6cncn6)(c6ccc(Cl)cc6Cl)O5)cc4)CC3)cc2)c1=O (stereo unspecified) [Itraconazole] (20 µM) please.
1.03

Also, O=C(O)C[C@H](O)C[C@H](O)/C=C/c1c(C2CC2)nc2ccccc2c1-c1ccc(F)cc1 [Pitavastatin calcium] (20 µM) please.
0.996

Also, CC1(C)O[C@@H]2[C@@H](CO[C@@]3(COS(N)(=O)=O)OC(C)(C)O[C@@H]23)O1 [Topiramate] (20 µM) please.
0.997

Also, Oc1c(Cl)cc(Cl)c(Cl)c1Cc1c(O)c(Cl)cc(Cl)c1Cl (20 µM) please.
1.02

Also, C=CC[N@@+]12CC[C@@]34c5ccccc5N5/C=C6/[C@H]7C[C@H]8[C@@]9(CC[N@@+]8(CC=C)C/C7=C/CO)c7ccccc7N(/C=C(/[C@@H](C[C@@H]31)/C(=C\CO)C2)[C@H]54)[C@@H]69 [Alcuronium chloride] (20 µM) please.
1.01

Also, CCN(CC)CC(=O)Nc1c(C)cccc1C [Lidocaine hydrochloride] (20 µM) please.
0.979

Also, O=C(O)c1ccccc1C(=O)Nc1ccc(S(=O)(=O)Nc2nccs2)cc1 [Phthalylsulfathiazole] (20 µM) please.
0.96

Also, Nc1ccc(S(N)(=O)=O)cc1 [Sulfanilamide] (20 µM) please.
0.987

Also, CC1(C)O[C@@H]2C[C@H]3[C@@H]4C[C@H](F)C5=CC(=O)C=C[C@]5(C)[C@@]4(F)[C@@H](O)C[C@]3(C)[C@]2(C(=O)CO)O1 [Fluocinolone acetonide] (20 µM) please.
1.01

Also, CN(C)C(=O)COC(=O)Cc1ccc(OC(=O)c2ccc(NC(=N)N)cc2)cc1 [Camostat mesylate] (20 µM) please.
1.04

Also, CCN1CCN(C(=O)N[C@@H](C(=O)N[C@@H]2C(=O)N3[C@@H]2SC(C)(C)[C@@H]3C(=O)O)c2ccccc2)C(=O)C1=O [Piperacillin sodium salt] (20 µM) please.
1.07

###

- Test system: Escherichia coli IAI1
- experiment-description: fold change of Putrescine concentration vs plate DMSO controls (fold change (ratio)); higher = more amine produced, active = hit call of the paper (significant change in both replicates, either direction)
- assay-conditions: incubation time: 27 h, anaerobic, 37 °C
observation-type: fold change of Putrescine concentration
Answer with a number only.

Before answering, review these 3 worked examples.
N[C@H]1CONC1=O [(S,-) Cycloserine] (20 µM) = 1.02
CC=CC(=O)N(CC)c1ccccc1C [Crotamiton] (20 µM) = 1.02
NC(=O)NS(=O)(=O)c1ccc(N)cc1 [Sulfacarbamide] (20 µM) = 1.01

Notebook: pull reported fold change of Putrescine concentration for Escherichia coli IAI1, entry CCN1CCN(C(=O)N[C@@H](C(=O)N[C@@H]2C(=O)N3C(C(=O)O)=C(CSc4nnnn4C)CS[C@H]23)c2ccc(O)cc2)C(=O)C1=O [Cefoperazone dihydrate] (20 µM)
0.451

###

- System: Klebsiella aerogenes DSM 30053
- experiment-description: growth (OD595) fold change vs plate DMSO controls (fold change (ratio)); higher = more growth
- assay-conditions: incubation time: 27 h, anaerobic, 37 °C
observation-type: growth
Answer with a number only.

Before answering, review these 5 worked examples.
NS(=O)(=O)Cc1noc2ccccc12 [Zonisamide] (20 µM) = 0.994
OC[C@H]1O[C@@H](O[C@@H]2[C@@H](CO)OC(O)(CO)[C@H]2O)[C@H](O)[C@@H](O)[C@H]1O (mixture of isomers) [Lactulose] (50 µM) = 1.01
C[C@@H]1C[C@H]2[C@@H]3C[C@H](F)C4=CC(=O)C=C[C@]4(C)[C@@]3(Cl)[C@@H](O)C[C@]2(C)[C@H]1C(=O)COC(=O)C(C)(C)C [Clocortolone pivalate] (20 µM) = 1.04
NCc1ccccc1CC(=O)N[C@@H]1C(=O)N2C(C(=O)O)=C(CSc3nnnn3CC(=O)O)CS[C@H]12 [Ceforanide] (20 µM) = 1.08
CO[C@H]1/C=C/O[C@@]2(C)Oc3c(C)c(O)c4c(O)c(c(/C=N/N5CCN(C6CCCC6)CC5)c(O)c4c3C2=O)NC(=O)/C(C)=C\C=C\[C@H](C)[C@H](O)[C@@H](C)[C@@H](O)[C@@H](C)[C@H](OC(C)=O)[C@@H]1C [Rifapentine] (20 µM) = 0.784

Attention now shifts to the item below.
Param item = CC(N/C(=N\C#N)Nc1ccncc1)C(C)(C)C (stereo unspecified) [Pinacidil monohydrate] (20 µM) ; retrieve measured growth.
0.98

###

- Tested on: Escherichia coli IAI1
- experiment-description: fold change of Cadaverine concentration vs plate DMSO controls (fold change (ratio)); higher = more amine produced, active = hit call of the paper (significant change in both replicates, either direction)
- assay-conditions: incubation time: 27 h, anaerobic, 37 °C
Counter-ions that a name gives are not always drawn.
Label scheme for fold change of Cadaverine concentration: lower than 1 is label 0, 1 and above is label 1.

Here's what some known entries look like.
COC(=O)C1=C(C)NC(C)=C(C(=O)OC)C1c1ccccc1[N+](=O)[O-] [Nifedipine] (20 µM) = label 0
O=C(O)[C@H]1/C(=C/CO)O[C@@H]2CC(=O)N21 [Clavulanate potassium salt] (20 µM) = label 1
CC1(C)S[C@@H]2[C@H](NC(=O)C(C(=O)O)c3ccccc3)C(=O)N2[C@H]1C(=O)O (some centres not stated) [Carbenicillin disodium salt] (20 µM) = label 1

Moving on to the next compound.
Hello, I need to know if OC(CCN1CCCC1)(c1ccccc1)C1CCCCC1 (configuration not stated) [Procyclidine hydrochloride] (20 µM) has measured fold change of Cadaverine concentration not below 1. Thanks!
label 0

###

- System: Escherichia coli IAI1
- experiment-description: fold change of Cadaverine concentration vs plate DMSO controls (fold change (ratio)); higher = more amine produced, active = hit call of the paper (significant change in both replicates, either direction)
- assay-conditions: incubation time: 27 h, anaerobic, 37 °C
Counter-ions that a name gives are not always drawn.
// fold change of Cadaverine concentration lookup, one value per entry

Before answering, review these 5 worked examples.
CC(CN(C)C)CN1c2ccccc2Sc2ccccc21 (centres undefined) [Trimeprazine tartrate] (20 µM) = 1.02 (inactive)
CCn1cc(C(=O)O)c(=O)c2cc(F)c(N3CCNCC3)cc21 [Norfloxacin] (20 µM) = 0.161 (active)
O=C1C(CC[S+]([O-])c2ccccc2)C(=O)N(c2ccccc2)N1c1ccccc1 (centres undefined) [Sulfinpyrazone] (20 µM) = 0.991 (inactive)
CC(=O)NC[C@H]1CN(c2ccc(N3CCOCC3)c(F)c2)C(=O)O1 [Linezolid] (20 µM) = 0.777 (active)
Cc1cc(C(C)(C)C)cc(C)c1CC1=NCCN1 [Xylometazoline hydrochloride] (20 µM) = 0.968 (inactive)

Param item = CCC[C@@H]1C[C@@H](C(=O)N[C@@H]([C@H]2O[C@H](SC)[C@H](O)[C@@H](O)[C@H]2O)[C@@H](C)O)N(C)C1 [Lincomycin hydrochloride] (20 µM) ; retrieve measured fold change of Cadaverine concentration.
0.967 (inactive)

Also, COCCc1ccc(OCC(O)CNC(C)C)cc1 (stereo not drawn) [Metoprolol-(+)-tartrate salt] (20 µM) please.
1.02 (inactive)

Also, COc1ccc(-c2cc(=S)ss2)cc1 [Anethole-trithione] (20 µM) please.
1.01 (inactive)

Also, Nc1nc(NC2CC2)c2ncn([C@H]3C=C[C@@H](CO)C3)c2n1 [Abacavir sulfate] (20 µM) please.
0.969 (inactive)

Also, CC(C)(C(=O)c1cccnc1)c1cccnc1 [Metyrapone] (20 µM) please.
1.01 (inactive)

Also, CC(=O)SCC(Cc1ccccc1)C(=O)NCC(=O)OCc1ccccc1 (centres undefined) [Racecadotril] (20 µM) please.
0.985 (inactive)

Also, CCOc1ccccc1OCC1CNCCO1 (centres undefined) [Viloxazine hydrochloride] (20 µM) please.
0.971 (inactive)

Also, Cc1ccc(-c2ncc(Cl)cc2-c2ccc(S(C)(=O)=O)cc2)cn1 [Etoricoxib] (20 µM) please.
0.905 (inactive)

Also, CC(=O)c1ccc2c(c1)N(CCCN(C)C)c1ccccc1S2 [Acetopromazine maleate salt] (20 µM) please.
1.03 (inactive)

Also, CC(=O)c1ccc2c(c1)N(CCCN1CCC(CCO)CC1)c1ccccc1S2 [Piperacetazine] (20 µM) please.
0.846 (inactive)

Also, Nc1ccc(O)c(C(=O)O)c1 [Mesalamine] (20 µM) please.
0.97 (inactive)

Also, CCCOc1ccc2[nH]c(NC(=O)OC)nc2c1 [Oxibendazol] (20 µM) please.
1 (inactive)

Also, Clc1cccc(Cl)c1NC1=NCCN1 [Clonidine hydrochloride] (20 µM) please.
0.996 (inactive)

Also, CC#C[C@]1(O)CC[C@H]2[C@@H]3CCC4=CC(=O)CCC4=C3[C@@H](c3ccc(N(C)C)cc3)C[C@@]21C [Mifepristone] (20 µM) please.
1.01 (inactive)

Also, O=C1OC(c2ccc(O)cc2)(c2ccc(O)cc2)c2ccccc21 [Phenolphthalein] (20 µM) please.
0.965 (inactive)

Also, CC(=O)Nc1cccc(O)c1 [Metacetamol] (20 µM) please.
1 (inactive)

Also, CC1(C)S[C@@H]2[C@H](NC(=O)[C@H](N)c3ccccc3)C(=O)N2[C@H]1C(=O)O [Ampicillin trihydrate] (20 µM) please.
2.29 (active)

Also, O=C(O)c1cc(-c2ccc(F)cc2F)ccc1O [Diflunisal] (20 µM) please.
1.02 (inactive)

Also, Cc1ccc(C)c(OCCCC(C)(C)C(=O)O)c1 [Gemfibrozil] (20 µM) please.
0.968 (inactive)

Also, CN/C(=N\CCSCc1nc[nH]c1C)NC#N [Cimetidine] (20 µM) please.
1.03 (inactive)

Also, C[C@]12CC[C@@H]3c4ccc(OS(=O)(=O)O)cc4CC[C@H]3[C@@H]1CCC2=O [Estropipate piperazine salt] (20 µM) please.
0.947 (inactive)

Also, N#C/C(=C1/SCC(c2ccccc2Cl)S1)n1ccnc1 (centres undefined) [Lanoconazole] (20 µM) please.
1.01 (inactive)

Also, CN1CC2c3ccccc3Oc3ccc(Cl)cc3C2C1 (centres undefined) [Asenapine maleate] (20 µM) please.
0.973 (inactive)
